Max MFI by entry:
target: T1, cynomolgus CCR8 (cynomolgus, UniProt G7NYJ2 1-355); assay: FACS on HEK293-cynomolgus CCR8 cells
T1 construct: whole, on cells
T1 sequence (G7NYJ2 entry or part of it): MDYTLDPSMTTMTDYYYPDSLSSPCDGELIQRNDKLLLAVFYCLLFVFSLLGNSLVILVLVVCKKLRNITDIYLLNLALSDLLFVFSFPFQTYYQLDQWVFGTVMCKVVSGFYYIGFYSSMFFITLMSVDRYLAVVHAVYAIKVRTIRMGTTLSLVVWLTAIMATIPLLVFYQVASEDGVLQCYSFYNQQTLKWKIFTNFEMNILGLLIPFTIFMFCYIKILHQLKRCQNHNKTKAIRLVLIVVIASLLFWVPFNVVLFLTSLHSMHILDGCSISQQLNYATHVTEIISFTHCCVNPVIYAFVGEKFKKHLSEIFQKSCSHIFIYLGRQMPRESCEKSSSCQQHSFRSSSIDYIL
Kindly answer with a numeric value in MFI, unit omitted.

Binder: Hu149-5 (antibody, V domains shown, humanized IgG) VH: EVQLVESGGGLVQPGGSLKLSCAASGFTFNTYAMNWVRQASGKGLEWVGRIRSKSNFYATYYAASVKGRFTISRDDSKNTAYLQMNSLKTEDTAVYYCVRGRDYGSSYAMDYWGQGTLVTVSS VL: DIVMTQSPLSLPVTPGEPASISCRSSKSLLHSNANTYLYWYLQKPGQSPQLLIYRMSNLASGVPDRFSGSGSGTDFTLKISRVEAEDVGVYYCMQHLEYPLTFGGGTKVELK
Readout value: 414

Entry Hu149-1 (antibody, V domains shown, humanized IgG, detected with anti-human IgG) VH: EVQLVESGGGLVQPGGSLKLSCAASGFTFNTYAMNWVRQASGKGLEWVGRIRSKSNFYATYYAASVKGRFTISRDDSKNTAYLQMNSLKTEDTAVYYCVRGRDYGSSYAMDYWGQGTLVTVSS VL: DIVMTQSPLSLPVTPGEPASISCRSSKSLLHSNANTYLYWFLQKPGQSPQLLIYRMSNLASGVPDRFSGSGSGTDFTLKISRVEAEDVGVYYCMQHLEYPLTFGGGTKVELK , Max MFI reported as 20900

Where do these numbers come from? They come from patent US20250034266A1.
